Cited source for all entries: ChEMBL document CHEMBL2407084

System: MDBK
Assay explanation: Inhibition of endoplasmic reticulum alpha-glucosidase 1 in MDBK cells assessed as accumulation of triglucosylated Man5GlcNAc1 after 24 hrs by NP-HPLC analysis
Format: cell-based
Stated conditions: Bos taurus
Catalogue of INH values

{"Compound structure": "OC[C@@H]1[C@@H](O)[C@H](O)[C@@H](O)CN1Cc1cn(CC23CC4CC(CC(C4)C2)C3)nn1", "INH": "100 µM"}
{"Compound structure": "OC[C@@H]1[C@@H](O)[C@H](O)[C@@H](O)CN1CCCCCCn1cc(COCC23CC4CC(CC(C4)C2)C3)nn1", "INH": "100 µM"}
{"Compound structure": "OC[C@@H]1[C@@H](O)[C@H](O)[C@@H](O)CN1CCCCCCCCCCn1cc(COCC23CC4CC(CC(C4)C2)C3)nn1", "INH": "10 µM"}
{"Compound structure": "OC[C@@H]1[C@@H](O)[C@H](O)[C@@H](O)CN1CCc1cn(CC23CC4CC(CC(C4)C2)C3)nn1", "INH": "100 µM"}
{"Compound structure": "OC[C@@H]1[C@@H](O)[C@H](O)[C@@H](O)CN1CCCCc1cn(CC23CC4CC(CC(C4)C2)C3)nn1", "INH": "100 µM"}
{"Compound structure": "OC[C@@H]1[C@@H](O)[C@H](O)[C@@H](O)CN1CCCCn1cc(COCC23CC4CC(CC(C4)C2)C3)nn1", "INH": "100 µM"}
{"Compound structure": "OC[C@@H]1[C@@H](O)[C@H](O)[C@@H](O)CN1CCCCCCCCn1cc(COCC23CC4CC(CC(C4)C2)C3)nn1", "INH": "25 µM"}

---

Catalogue of fold change (FC) values
Test system: MDBK
Assay explanation: Inhibition of endoplasmic reticulum alpha-glucosidase 1 in MDBK cells assessed as accumulation of triglucosylated Man5GlcNAc1 after 24 hrs by NP-HPLC analysis relative to Man4GlcNAc1 level
Type: cell-based
Stated conditions: Bos taurus

{"Compound structure": "OC[C@@H]1[C@@H](O)[C@H](O)[C@@H](O)CN1Cc1cn(CC23CC4CC(CC(C4)C2)C3)nn1", "fold change (FC)": 0.54}
{"Compound structure": "OC[C@@H]1[C@@H](O)[C@H](O)[C@@H](O)CN1CCCCCCCCCCn1cc(COCC23CC4CC(CC(C4)C2)C3)nn1", "fold change (FC)": 0.26}
{"Compound structure": "OC[C@@H]1[C@@H](O)[C@H](O)[C@@H](O)CN1CCc1cn(CC23CC4CC(CC(C4)C2)C3)nn1", "fold change (FC)": 0.82}
{"Compound structure": "OC[C@@H]1[C@@H](O)[C@H](O)[C@@H](O)CN1CCCCCCn1cc(COCC23CC4CC(CC(C4)C2)C3)nn1", "fold change (FC)": 11.4}
{"Compound structure": "OC[C@@H]1[C@@H](O)[C@H](O)[C@@H](O)CN1CCCCn1cc(COCC23CC4CC(CC(C4)C2)C3)nn1", "fold change (FC)": 1.52}
{"Compound structure": "OC[C@@H]1[C@@H](O)[C@H](O)[C@@H](O)CN1CCCCCCCCn1cc(COCC23CC4CC(CC(C4)C2)C3)nn1", "fold change (FC)": 2}
{"Compound structure": "OC[C@@H]1[C@@H](O)[C@H](O)[C@@H](O)CN1CCCCc1cn(CC23CC4CC(CC(C4)C2)C3)nn1", "fold change (FC)": 1.44}

---

Assay explanation: Cytotoxicity against MDBK cells after 72 hrs by MTS assay
Assay type: cell-based, Bos taurus
Stated conditions: cattle
Catalogue of CC50 at 72 h values
Experimental endpoint: CC50 at 72 h

{"Compound structure": "OC[C@@H]1[C@@H](O)[C@H](O)[C@@H](O)CN1CCCCc1cn(CC23CC4CC(CC(C4)C2)C3)nn1", "Experimental endpoint": "CC50 at 72 h", "Result": "> 250 µM"}
{"Compound structure": "OC[C@@H]1[C@@H](O)[C@H](O)[C@@H](O)CN1CCCCCCn1cc(COCC23CC4CC(CC(C4)C2)C3)nn1", "Experimental endpoint": "CC50 at 72 h", "Result": "205 µM"}
{"Compound structure": "OC[C@@H]1[C@@H](O)[C@H](O)[C@@H](O)CN1Cc1cn(CC23CC4CC(CC(C4)C2)C3)nn1", "Experimental endpoint": "CC50 at 72 h", "Result": "> 250 µM"}
{"Compound structure": "OC[C@@H]1[C@@H](O)[C@H](O)[C@@H](O)CN1CCc1cn(CC23CC4CC(CC(C4)C2)C3)nn1", "Experimental endpoint": "CC50 at 72 h", "Result": "> 250 µM"}
{"Compound structure": "OC[C@@H]1[C@H](O)[C@H](O)[C@@H](O)CN1CCCCn1cc(COCC23CC4CC(CC(C4)C2)C3)nn1", "Experimental endpoint": "CC50 at 72 h", "Result": "> 250 µM"}
{"Compound structure": "OC[C@@H]1[C@@H](O)[C@H](O)[C@@H](O)CN1CCCCn1cc(COCC23CC4CC(CC(C4)C2)C3)nn1", "Experimental endpoint": "CC50 at 72 h", "Result": "> 250 µM"}
{"Compound structure": "OC[C@@H]1[C@@H](O)[C@H](O)[C@@H](O)CN1CCCCCCCCn1cc(COCC23CC4CC(CC(C4)C2)C3)nn1", "Experimental endpoint": "CC50 at 72 h", "Result": "51.7 µM"}
{"Compound structure": "OC[C@@H]1[C@@H](O)[C@H](O)[C@@H](O)CN1CCCCCCCCCCn1cc(COCC23CC4CC(CC(C4)C2)C3)nn1", "Experimental endpoint": "CC50 at 72 h", "Result": "29.2 µM"}
